Assay: physchem
Type: physicochemical
Conditions: 20 °C, water, aqueous solubility
From the text: Several salts of eletriptan have been identified that have properties which make them particularly suitable for development as drug substances. […] It is therefore desirable to provide a controlled release formulation capable of achieving a sigmoidal pattern of drug release and suitable for oral administration that is equally useful for the delivery of any form of eletriptan, regardless of its solubility.
Structures can show the parent of a compound that is named as a salt.

molecule | solubility
CN1CCC[C@@H]1Cc1c[nH]c2ccc(CCS(=O)(=O)c3ccccc3)cc12 [hydrobromide salt, eletriptan hydrobromide] | 4000 µg/mL
